assay: Surface tension versus surfactant concentration: CMC and minimum surface tension; assay type: physicochemical; conditions: SL-amides; 25° C.
What MST (minimum surface tension) was measured for each of the following?
The figure you give is taken to be in mN/m; do not add the unit.

// query In one line, give reported MST (minimum surface tension) of the entry CCCCCCNC(=O)CCCCCCCC=CCCCCCCC(C)OC1OC(CO)C(O)C(O)C1OC1OC(CO)C(O)C(O)C1O (stereo not shown) [Compound 25, SL-Hexyl Amide] .
// result 36.5

// query In one line, give reported MST (minimum surface tension) of the entry CCCCNC(=O)CCCCCCCC=CCCCCCCC(C)OC1OC(CO)C(O)C(O)C1OC1OC(CO)C(O)C(O)C1O (stereo not shown) [Compound 24, SL-Butyl Amide] .
// result 38.7

// query In one line, give reported MST (minimum surface tension) of the entry CCNC(=O)CCCCCCCC=CCCCCCCC(C)OC1OC(CO)C(O)C(O)C1OC1OC(CO)C(O)C(O)C1O (stereo not shown) [Compound 23, SL-Ethyl Amide] .
// result 40.9

// query In one line, give reported MST (minimum surface tension) of the entry CNC(=O)CCCCCCCC=CCCCCCCC(C)OC1OC(CO)C(O)C(O)C1OC1OC(CO)C(O)C(O)C1O (stereo not shown) [Compound 22, SL-Methyl Amide] .
// result 43.3

* * *

What Average droplet size was measured for each of the following?
assay: Emulsion droplet size distribution, Coulter LS 230 analyzer; type: physicochemical; details: paraffin oil-to-water 7:3 v/v, 1 weight %, aged 3-months, 25° C.
The figure you give is taken to be in μm; do not add the unit.

// query In one line, give reported Average droplet size of the entry CCCCCCCCCCCCOS(=O)(=O)[O-].[Na+] [SDS, Sodium dodecyl sulfate, reference compound] .
// result 2.7

// query In one line, give reported Average droplet size of the entry CCCCOC(=O)CCCCCCCC=CCCCCCCC(C)OC1OC(CO)C(O)C(O)C1OC1OC(CO)C(O)C(O)C1O (centres unmarked) [Compound 8, SL-Butyl Ester] .
// result 3.1

// query In one line, give reported Average droplet size of the entry CCCCCCOC(=O)CCCCCCCC=CCCCCCCC(C)OC1OC(CO)C(O)C(O)C1OC1OC(CO)C(O)C(O)C1O (centres unmarked) [Compound 16, SL-Hexyl Ester] .
// result 2.5

// query In one line, give reported Average droplet size of the entry CCCCNC(=O)CCCCCCCC=CCCCCCCC(C)OC1OC(CO)C(O)C(O)C1OC1OC(CO)C(O)C(O)C1O (centres unmarked) [Compound 24, SL-Butyl Amide] .
// result 4.7

// query In one line, give reported Average droplet size of the entry CCCCCCNC(=O)CCCCCCCC=CCCCCCCC(C)OC1OC(CO)C(O)C(O)C1OC1OC(CO)C(O)C(O)C1O (centres unmarked) [Compound 25, SL-Hexyl Amide] .
// result 3.7

* * *

assay: Emulsion stability based on phase separation; format: physicochemical; conditions: paraffin oil/water 5/5, 2%-by-weight emulsifier, after 24 hours at 25° C.
REPORTED METRIC: emulsion layer percentage

// query In one line, give reported emulsion layer percentage of the entry CCCCCCNC(=O)CCCCCCCC=CCCCCCCC(C)OC1OC(CO)C(O)C(O)C1OC1OC(CO)C(O)C(O)C1O (centres unmarked) [Compound 25, SL-Hexyl Amide] .
// result 60%
